# Assay protocol: Pharmacokinetic study of KPT-335 capsules in cats, single oral dose
# Assay type: in vivo, cat
# Condition label: plasma; cats, single oral dose of capsules 2 mg/kg BW
Readout name: AUC(0-t) (ng·h/mL)
Entry rule: numbers only, all in ng·h/mL.

Need AUC(0-t), item `O=C(/C=C\n1cnc(-c2cc(C(F)(F)F)cc(C(F)(F)F)c2)n1)NNc1ccccn1` 1440

---

# Assay protocol: Pharmacokinetic study of KPT-335 capsules in cats, single oral dose
# Assay type: in vivo, cat
# Condition label: plasma; cats, single oral dose of capsules 2 mg/kg BW
Readout name: Cmax
Lab note: write values as number then unit, every time.

Need Cmax, item `O=C(/C=C\n1cnc(-c2cc(C(F)(F)F)cc(C(F)(F)F)c2)n1)NNc1ccccn1` 240 ng/mL

These measurements were taken from paper PMC11310113.
